All values here come from ChEMBL document CHEMBL5352449.

experiment: Induction of AFT3 gene expression in mouse 3T3-L1 cells assessed as relative gene expression level at 50 uM incubated for 8 days by real time-PCR analysis (reference value: 1.00); assay type: functional; details: time 8 day
Entries and their Activity values follow.

These solved cases illustrate the format of a correct answer.
>  <compound>
O=c1oc2c3ccccc3ccc2c2occ(C3CC3)c12

>  <recorded.endpoint>
Activity

>  <recorded.result>
2.92

$$$$
>  <compound>
O=c1oc2c3ccccc3ccc2c2occ(CO)c12

>  <recorded.endpoint>
Activity

>  <recorded.result>
1.39

$$$$
>  <compound>
Cc1n[nH]c2c1c(=O)oc1cc(F)ccc12

>  <recorded.endpoint>
Activity

>  <recorded.result>
1.46

$$$$
>  <compound>
O=C(O)c1coc2c1c(=O)oc1c3ccccc3ccc21

>  <recorded.endpoint>
Activity

>  <recorded.result>
1.06

$$$$
>  <compound>
O=c1oc2cc(O)ccc2c2c1C(O)(C(F)(F)F)CO2 (configuration not stated)

>  <recorded.endpoint>
Activity

>  <recorded.result>
0.99

$$$$
>  <compound>
CC1(C)Oc2c(c(=O)oc3c2ccc2ccccc23)C1(C)C

>  <recorded.endpoint>
Activity

>  <recorded.result>
3.22

$$$$
>  <compound>
COc1ccc2c(c1)oc(=O)c1c(C)onc12

>  <recorded.endpoint>
Activity

>  <recorded.result>
1.62

$$$$
>  <compound>
COc1cccc2oc(=O)c3c(C)n[nH]c3c12

>  <recorded.endpoint>
Activity

>  <recorded.result>
0.98

$$$$
>  <compound>
O=c1oc2cc(O)ccc2c2occ(C(F)(F)F)c12

>  <recorded.endpoint>
Activity

>  <recorded.result>
1.4

$$$$
>  <compound>
O=c1oc2c(ccc3ccccc32)c2c1C(O)(C(F)(F)F)CO2 (configuration not stated)

>  <recorded.endpoint>
Activity

>  <recorded.result>
2.19

$$$$

Q) Find the recorded Activity belonging to O=c1oc2c3ccccc3ccc2c2[nH]nc(C(F)(F)F)c12 and report it.
A) 1.62

Q) For the compound Cc1ccc2c(c1)oc(=O)c1c(C)n[nH]c12 , what Activity is on record?
A) 1.38

----------
# CC50 annotations
test: Cytotoxicity against mouse 3T3-L1 adipocytes assessed as reduction in cell viability; assay type: toxicity, cell-based; conditions: 3T3-L1 adipocytes

>  <smiles.str>
COc1cccc2c1oc(=O)c1c(C)n[nH]c12

>  <CC50>
> 100 µM

$$$$

Now look at this one.
Q) # query: CC50 of entry COc1ccc2c(c1)oc(=O)c1c(C)n[nH]c12
A) > 100 µM

----------
assay: Induction of AFT3 gene expression in mouse 3T3-L1 cells assessed as relative gene expression level at 50 uM incubated for 8 days by real time-PCR analysis (reference value: 1.00); type: functional; conditions: time 8 day
Outcome label depends on Activity relative to 2: at/above gives y, below gives n.

Use these answered entries as a reference point.
>  <smiles.str>
COc1cccc2c1oc(=O)c1c(C(F)(F)F)n[nH]c12

>  <class.label>
n

$$$$
>  <smiles.str>
Cc1n[nH]c2c1c(=O)oc1c3ccccc3ccc21

>  <class.label>
n

$$$$

Q) Please indicate if the recorded Activity for O=c1oc2cc(OCc3ccncc3)ccc2c2occ(C(F)(F)F)c12 meets or exceeds 2.
A) n

Q) # check: Activity of O=c1oc2cc(Br)ccc2c2[nH]nc(C(F)(F)F)c12 is greater than or equal to 2
A) y

Q) Given the entry COc1ccc2c(c1)oc(=O)c1c(C(F)(F)F)n[nH]c12 , answer whether its Activity meets or surpasses 2.
A) n

Q) Threshold query (Activity >= 2) on COc1ccc(-c2n[nH]c(C)c2C(=O)O)c(O)c1
A) n

Q) Please indicate if the recorded Activity for C[C@@H]1c2c(c3ccc4ccccc4c3oc2=O)O[C@@H]1C meets or exceeds 2.
A) y

Q) Exam item: decide whether the reported Activity for COc1ccc2c(c1)oc(=O)c1c(C(F)(F)F)coc12 is at least 2.
A) y

Q) Given Cc1coc2c1c(=O)oc1c3ccccc3ccc21 , state whether its Activity is at least 2.
A) n

Q) Given the entry Cc1[nH]nc(-c2ccc3ccccc3c2O)c1C(=O)O , answer whether its Activity meets or surpasses 2.
A) n

Q) Is Activity for COc1ccc2c(c1)oc(=O)c1c(C)n[nH]c12 at or above 2?
A) y

----------
The reader will find reported Activity values listed item by item below.
assay: Induction of AFT3 gene expression in mouse 3T3-L1 cells assessed as relative gene expression level at 50 uM incubated for 8 days by real time-PCR analysis (reference value: 1.00); type: functional; conditions: time 8 day

Take a look at these entries with their results.
>  <molecule>
OCc1c(C(F)(F)F)coc1-c1ccc2ccccc2c1O

>  <recorded.result>
1.41

$$$$
>  <molecule>
O=c1oc2c3ccccc3ccc2c2occ(C(F)(F)F)c12

>  <recorded.result>
1.44

$$$$
>  <molecule>
Cc1coc2c1c(=O)oc1cc(Br)ccc12

>  <recorded.result>
1.28

$$$$

Q) I would be grateful if you could share the reported Activity for Cc1n[nH]c2c1c(=O)oc1cc(Br)ccc12 .
A) 2.12

Q) Look at this molecule and give its reported Activity. COc1ccc2c3c(c(=O)oc2c1)C(O)(C(F)(F)F)CO3 (stereo not drawn)
A) 1.39

Q) Data request, read-out Activity, for Cn1ncc2c3ccc4ccccc4c3oc(=O)c21
A) 1.44

Q) So what's the measured Activity for this one? COc1cccc2c1oc(=O)c1c(C)n[nH]c12
A) 4.78

Q) Suppose we examine the molecule O=c1oc2cc(Br)ccc2c2c1C(O)(C(F)(F)F)CO2 (stereo not drawn) ; what Activity value has been reported?
A) 1.08
